tested on: HCT-116 colon; assay: NCI tumour cell line growth inhibition, 48 h
measure: TGI

- C=CCN(/C=C1/C(=O)O[C@H](COC)[C@@]2(C)C1=C(O)C(=O)C1=C2[C@H](OC(C)=O)C[C@]2(C)C(=O)CC[C@@H]12)CC=C: > 10 µM
- COc1ccc(-c2cc(=O)c3c(C)cc(C)nc3[nH]2)cc1: > 100 µM
- COc1ccc(N(C)C(=O)N(C)c2ccc([N+](=O)[O-])cc2)cc1: > 100 µM
- CCCCc1c2c(nc3c1CCc1cc4cc5c(nc4nc1-3)-c1nc3c(c(CCCC)c1CC5)CCCC3)CCCC2: > 100 µM

* * *

Overview of recorded TGI for various molecules
system: OVCAR-4 ovarian; assay: NCI tumour cell line growth inhibition, 48 h
measure: TGI

- O=C(O)[C@@H]1[C@H](C(=O)O)[C@H](C(=O)O)C[C@@H]1C(=O)O: > 100 µM
- Clc1ccc(Cc2nc3ccccc3s2)c(Cl)c1: 27 µM
- O=C1c2ccc([N+](=O)[O-])cc2-c2c1c1ccccc1c(=O)n2CCCNCCCNCCCn1c2c(c3ccc([N+](=O)[O-])cc3c1=O)C(=O)c1ccccc1-2: 2.88 µM
- Nc1nc(-c2ccccc2N=NN2CCCC2)nc2ccccc12: 19.1 µM
- CC(C)=CCC/C(C)=C/CC/C(C)=C/Cc1c(O)c2ccccc2oc1=O: > 100 µM
- CCOC(=O)C(=[N+]=[N-])C(=O)Nc1nn2nnnc2c2ccccc12: > 100 µM
- Cc1ccc(C(C)(C)C[P+](C)(c2ccccc2)c2ccccc2)cc1: 63.7 µM
- CCO/C=C/C(C)C1(C(=O)OCC)CCCCC1=O (stereo not drawn): > 100 µM

* * *

tested on: T-47D breast; assay: NCI tumour cell line growth inhibition, 48 h; in the data active = GI50 below about 0.43 µM; inactive = the rest
Outcomes: 1 = active, -1 = inactive

- COc1ccc(-c2nc3sc(-c4ccc(Cl)cc4)cn3n2)cc1: -1
- CCc1n(Cc2ccc3ccccc3n2)cc[n+]1Cc1ccc2ccccc2n1: 1
- COc1ccc(C2SCC(=O)N2NC(=O)C(O)c2ccccc2)cc1OC (stereo unspecified): -1
- C=CCN(/C=C1/C(=O)O[C@H](COC)[C@@]2(C)C1=C(O)C(=O)C1=C2[C@H](OC(C)=O)C[C@]2(C)C(=O)CC[C@@H]12)CC=C: 1
- Cc1ccc(/C(=N\N=C(N)N)c2ccccc2)cc1: 1
- Cc1cc(/C=C\c2ccc3ccccc3[n+]2C)c(O)c2ncccc12: -1

* * *

tested on: T-47D breast; test: NCI tumour cell line growth inhibition, 48 h
measure: TGI (µM)

* CCN(CC)CCNc1ccc([N+](=O)[O-])c2sc3ccccc3c(=O)c12 | 18.9
* CC(C)=CCC[C@@H](C)C1=C(Nc2ccccc2Cl)C(O)=C(C)C(=O)C1=O | 34.1
* COc1ccc2c(c1)/C(=C\c1cccnc1)C(=O)N2 | 37.9
* Oc1ccc(C(c2ccc(O)cc2)c2ccc(Cl)cn2)cc1 | 0.0762
* O=[N+]([O-])c1c(Br)cc(Br)c2c1Nc1c(ccc(Cl)c1Cl)S2 | 29.9
* N=c1oc2ccc3ccccc3c2cc1C(N)=O | 99.7
* CN1CCN(c2ccc(NC(=O)c3nc4ccc5[nH]ncc5c4c4c3CCCC4)cc2C(F)(F)F)CC1 | 1.74
* COc1cc(/C=C/C(=O)c2c(=O)o[nH][n+]2-c2ccccc2)ccc1[O-] | 11.7

* * *

tested on: RPMI-8226 leukemia; test: NCI tumour cell line growth inhibition, 48 h
measure: TGI

* COc1ccc(C2SCC(=O)N2NC(=O)C(O)c2ccccc2)cc1OC (stereo not given) | > 100 µM
* N/N=C1/C2CN3CCN(C2)CC1(c1ccc([N+](=O)[O-])cc1)C3 | > 100 µM
* C=CCN(/C=C1/C(=O)O[C@H](COC)[C@@]2(C)C1=C(O)C(=O)C1=C2[C@H](OC(C)=O)C[C@]2(C)C(=O)CC[C@@H]12)CC=C | > 10 µM
* COc1cc2c(c(OC)c1OC)-c1ccc(N)c(=O)cc1[C@@H](NC(C)=O)CC2 | > 100 µM
* CCCCc1c2c(nc3c1CCc1cc4cc5c(nc4nc1-3)-c1nc3c(c(CCCC)c1CC5)CCCC3)CCCC2 | > 100 µM
* COC[C@@H](N=CN1CCc2cc(OC)c(OC)cc2[C@@H]1C)C(C)(C)C | > 100 µM
* O=[N+]([O-])c1ccc(S(=O)Cc2ccccc2)c([N+](=O)[O-])c1 (stereo not given) | 4.46 µM
* COc1nc(N(C)C)nc2c1n(C)c[n+]2C | > 100 µM
* COc1ccc2c(c1)C(N)=C(c1ccccc1)C2=O | > 100 µM
* N#CC(C#N)=C1C(C#N)=C(N)NC12OCCO2 | > 100 µM

* * *

Overview of recorded TGI for various compounds
tested on: K-562 leukemia; assay: NCI tumour cell line growth inhibition, 48 h
measure: TGI

* O=C(/C=C/c1ccccc1)CC1OC(=O)c2ccccc21 (stereo not given) | > 100 µM
* CCCCS(=O)CCC(N)C(=O)O (stereo not given) | > 100 µM
* C=C(CCCCCCCCC)CC(=O)SCCNC(=O)CCNC(=O)C(O)C(C)(C)COP(=O)(O)OP(=O)(O)OCC1OC(n2cnc3c(N)ncnc32)C(O)C1OP(=O)(O)O (stereo not given) | > 31.6 µM
* OCCCOC(c1ccccc1)(c1ccccc1)c1ccccc1 | > 100 µM
* CC1CC2CC(=O)CC3(C1)C2CCCN3CCCO (stereo not given) | > 100 µM
* Cc1nc2c3c(ncn2n1)Oc1c(c(-c2ccccc2)nn1-c1ccccc1)C3c1ccc(Cl)cc1 (stereo not given) | > 100 µM
* CC(=O)NNc1nc(C)c(C(=O)NNC(=O)C(=O)Nc2c(C)cccc2C)s1 | > 100 µM
* CN(C)CCNC(=O)c1ccc(NCCCN(C)CCCNc2ccc3c(=O)n(CCN(C)C)c(=O)n4c5ccccc5c(=O)c2c34)c2c(=O)c3ccccc3[nH]c12 | 1.06 µM
* CN1CCN(c2ccc(NC(=O)c3nc4ccc5[nH]ncc5c4c4c3CCCC4)cc2C(F)(F)F)CC1 | 2.11 µM
* CC1OC(OCC2OC(Oc3c(-c4ccc(O)cc4)oc4cc(O)cc(O)c4c3=O)C(OC3OC(C)C(O)C(O)C3O)C(O)C2O)C(O)C(O)C1O (stereo not given) | > 31.6 µM

* * *

Overview of recorded TGI for various compounds
tested on: SNB-19 CNS; experiment: NCI tumour cell line growth inhibition, 48 h
measure: TGI

• Cc1cccc2c1[nH]c1[nH]c(=O)[nH]c(=O)c12 = > 100 µM
• COc1ccc(/C=c2\[nH]c3nc(=O)c(N4CCOCC4)c(N)n3c2=O)cc1 = > 100 µM
• CC(=O)N[C@@H]1C(O)CN2C(=O)C(=O)O[C@H](C(O)CO)[C@@H]12 (stereo partly drawn) = > 100 µM

* * *

tested on: MDA-MB-231 breast; experiment: NCI tumour cell line growth inhibition, 48 h
Overview of recorded TGI for various compounds
measure: TGI (µM)

* C/C(=N\O)c1cccc(Nc2cc(-n3ccnn3)c3ccccc3n2)c1 | 25.9
* CC1(C)CC[C@H](Nc2ncc(C(F)(F)F)c(-c3c[nH]c4c(P(C)(C)=O)c(C#N)ccc34)n2)CN1 | 9.08
* COc1ccc(-c2cc(=O)c3c(C)cc(C)nc3[nH]2)cc1 | 67.5
* CC[C@@]1(O)C[C@H](OC2CC(N(C)C)C(OC3CC(O)C(OC4CCC(=O)C(C)O4)C(C)O3)C(C)O2)c2c(cc3c(c2O)C(=O)c2c(O)cccc2C3=O)[C@H]1C(=O)OC (stereo partly specified) | 0.198
* CC(CN(C)C)Nc1c2ccccc2nc2cccc([N+](=O)[O-])c12 (stereo unspecified) | 2.64
* O=[N+]([O-])c1ccc(S(=O)Cc2ccccc2)c([N+](=O)[O-])c1 (stereo unspecified) | 8.92
* CC(C)CNCC(O)COc1ccc(C(C)(C)c2ccc(OCC(O)CNCC(C)C)cc2)cc1 (stereo unspecified) | 3.25
* Cc1ccc(S(=O)(=O)NCCNC2=CC(=O)c3nc4ccccc4c4ccnc2c34)cc1 | 66.1
* COc1cccc(CC(C)NCC(O)c2ccc(O)c(O)c2)c1 (stereo unspecified) | 60.1
* CCOC(=O)C1=C(C(=O)c2ccc(C)cc2)C(c2cccc([N+](=O)[O-])c2)C(C(=O)c2ccc(C)cc2)=C(C(=O)OCC)N1 | 29

* * *

test system: EKVX NSCLC; assay: NCI tumour cell line growth inhibition, 48 h; in the data active means GI50 below about 0.43 µM; inactive means the rest
Outcomes: active, inactive

* COc1ccccc1/C=C/[N+](=O)[O-] | inactive
* COc1ccc2c(c1)/C(=C\c1cccnc1)C(=O)N2 | inactive
* CN(C)c1ccc([O-])cc1.CN(C)c1ccc([O-])cc1.CN(C)c1ccc([O-])cc1.CN(C)c1ccc([O-])cc1.[Ti+4] | inactive
* O=C([CH-]C(=O)c1ccccc1)c1ccccc1.O=C([CH-]C(=O)c1ccccc1)c1ccccc1.O=C([CH-]C(=O)c1ccccc1)c1ccccc1.[Nd+3].[OH3+] | inactive
* C1C[OH+]CC[OH+]CCNCC[OH+]CC[OH+]CCN1.[Cl-].[Pt+4] | inactive
* COc1cc(CCN)c2c(c1OC)SSSSS2 | inactive
* Cc1cc(/C=C\c2ccc3ccccc3[n+]2C)c(O)c2ncccc12 | inactive
* FC(F)(F)c1cc(-c2nnc3n2N=C(N2CCCC2)CS3)cc(C(F)(F)F)c1 | inactive
* C=C1SC(=Nc2c(C)cc(C)cc2C)N(C(=O)c2sc3ccccc3c2Cl)C12CCCCC2 | inactive
* Oc1ccc(C(c2ccc(O)cc2)c2ccc(Cl)cn2)cc1 | active
* O=C1C=C(NCCNC(=S)Nc2ccccc2)c2nccc3c2c1nc1ccccc13 | inactive
